Recorded values, source PubChem BioAssay.

Measured inhibition accompanies every entry in the list below.
- tested-target: PEG-3 (UniProt Q6IN02)
- Sequence (Q6IN02 whole entry, looked up): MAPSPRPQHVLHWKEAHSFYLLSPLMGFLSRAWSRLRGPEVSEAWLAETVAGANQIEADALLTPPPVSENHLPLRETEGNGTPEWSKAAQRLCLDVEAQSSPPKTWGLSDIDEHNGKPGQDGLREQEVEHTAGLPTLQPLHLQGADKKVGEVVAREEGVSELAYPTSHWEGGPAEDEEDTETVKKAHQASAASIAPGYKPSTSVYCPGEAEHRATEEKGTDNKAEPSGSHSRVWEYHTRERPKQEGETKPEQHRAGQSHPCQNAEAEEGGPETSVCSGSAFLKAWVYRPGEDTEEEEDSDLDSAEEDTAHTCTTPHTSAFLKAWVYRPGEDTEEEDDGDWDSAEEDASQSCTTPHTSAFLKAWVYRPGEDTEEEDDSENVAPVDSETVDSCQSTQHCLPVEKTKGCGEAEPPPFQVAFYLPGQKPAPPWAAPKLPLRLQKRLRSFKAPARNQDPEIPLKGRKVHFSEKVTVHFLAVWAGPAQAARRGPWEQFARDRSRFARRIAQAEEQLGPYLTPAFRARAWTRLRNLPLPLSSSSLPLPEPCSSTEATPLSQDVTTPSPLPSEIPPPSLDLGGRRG
- procedure-summary: Peg3 promoter luciferase inhibitors, potency, dose response, cell-based, HeLa, CREF/GAPDH counter-screen panel (AID 624167)
- applied-conditions: CREF/GAPDH counter-screens; HeLa PEG-Prom luciferase reporter, overnight, run 1, dose range 1, at 100 µM (top of the series) unless noted

Worked examples follow.
>  <compound>
Cc1cc(Br)ccc1NC(=O)CNC(=O)Cn1ncc(Cl)c(Cl)c1=O

>  <endpoint-result>
99.8%

$$$$
>  <compound>
CCOC(=O)c1cccc(Nc2nc(-c3cccnc3)nc3ccccc23)c1

>  <endpoint-result>
98.9%

$$$$

stdin: Name the recorded inhibition for CC(C)CC1C(=O)N(Cc2cn(Cc3ccco3)nn2)CCS(=O)(=O)N1Cc1ccc(-c2ccc(F)cc2)cc1 (configuration not stated) .
stdout: 39%

stdin: Now the same for Cc1ccc(-c2cc3c(nn2)-c2ccccc2C3=O)cc1
stdout: 98.6%

====

- tested-target: Tumor necrosis factor receptor superfamily member 10B (Homo sapiens)
- procedure-summary: caspase-8 TRAIL sensitization, hit retest, confirmation, cell-based, NB7+caspase-8, with/without TRAIL, luminescence panel (AID 651596)
- applied-conditions: NB7 neuroblastoma + caspase-8, TRAIL sensitization, luminescence viability, with TRAIL, mean of runs, at 10 µM, stronger effect = higher value
measured-property: activity
The number alone won't do; follow it with the unit.

Worked examples follow.
>  <compound>
CCC1CCCCN1c1ccc([N+](=O)[O-])cc1/C=N/NC(=O)Cn1c2ccccc2c(=O)c2ccccc21 (stereo unspecified)

>  <activity>
60.3%

$$$$
>  <compound>
COC(=O)c1ccc(/C=C/c2nc3ccccc3c(=O)[nH]2)cc1

>  <activity>
60.9%

$$$$
>  <compound>
O=c1c2[nH]c3ccc(F)cc3c2ncn1C1CCCCC1

>  <activity>
59.1%

$$$$
>  <compound>
Cc1cccc(NC(=O)c2cc3ccccc3c(=O)o2)n1

>  <activity>
60.3%

$$$$
>  <compound>
Cc1ccc(-c2nnc(-c3cccc4ccccc34)o2)cc1

>  <activity>
58.2%

$$$$

stdin: Name the recorded activity for COc1ccc2[nH]c(C(=O)Nc3cccc(C)n3)cc2c1 .
stdout: 58.8%

====

Measured activity accompanies every entry in the list below.
- procedure-summary: caspase-8 TRAIL sensitization, hit retest, confirmation, cell-based, NB7+caspase-8, with/without TRAIL, luminescence panel (AID 651596)
- applied-conditions: NB7 neuroblastoma + caspase-8, without TRAIL, luminescence viability, without TRAIL, mean of runs, at 10 µM
Give the number; % is assumed, so skip it.

Worked examples follow.
>  <molecule>
N/C(=N\OC(=O)c1ccccc1)c1ccn[nH]1

>  <activity (%)>
68.1

$$$$
>  <molecule>
CCOC(=O)C1CCN(C(=O)C2c3ccccc3C(=O)N(C)C2c2ccc(OC)cc2)CC1 (stereo not given)

>  <activity (%)>
60.9

$$$$
>  <molecule>
Cc1nn(-c2ccccc2)c(Cl)c1/C=N/NC(=O)c1ccn[nH]1

>  <activity (%)>
71.3

$$$$
>  <molecule>
CCc1ccc(NC(=O)c2cnn3ccccc23)cc1

>  <activity (%)>
58.6

$$$$

Could you now look at the following molecule, please?
stdin: Name the recorded activity for N#Cc1cc2c(nc1SCC(=O)Nc1nccs1)CCCCC2 .
stdout: 69.2

====

- tested-target: Sentrin-specific protease 6 (Homo sapiens) (UniProt Q9GZR1)
- Sequence (Q9GZR1 628-1112 limits assumed): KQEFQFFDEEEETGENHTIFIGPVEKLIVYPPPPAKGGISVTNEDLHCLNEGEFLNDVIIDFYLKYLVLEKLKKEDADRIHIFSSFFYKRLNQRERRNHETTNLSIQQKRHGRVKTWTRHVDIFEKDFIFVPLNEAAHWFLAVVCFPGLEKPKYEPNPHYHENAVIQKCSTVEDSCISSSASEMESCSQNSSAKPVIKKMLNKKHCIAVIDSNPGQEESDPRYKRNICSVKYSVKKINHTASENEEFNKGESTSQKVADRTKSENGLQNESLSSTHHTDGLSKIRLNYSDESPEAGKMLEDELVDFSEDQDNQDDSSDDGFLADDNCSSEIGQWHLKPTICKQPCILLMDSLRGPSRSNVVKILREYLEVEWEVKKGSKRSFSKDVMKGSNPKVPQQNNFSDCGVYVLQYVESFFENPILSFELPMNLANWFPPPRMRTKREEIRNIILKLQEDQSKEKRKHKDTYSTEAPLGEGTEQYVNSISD
- procedure-summary: SENP6 protease inhibitors, confirmation, biochemical, luminescence, single concentration (AID 488915)
- applied-conditions: recombinant SENP6, Z-RLRGG-aminoluciferin luminescence; at 12.5 µM
The other results are listed elsewhere or left out. Activity calls are given as the source filed them.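 How the source made its calls: active means mean inhibition above about 50% in the one-dose retest (limit read from the data); inactive means the rest.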
Classes to choose from: Y = active, N = inactive

Worked cases, answers included:
>  <molecule>
O=C1/C(=C/c2cccs2)CCc2ccccc21

>  <assigned-label>
Y

$$$$
>  <molecule>
O=C(Nc1ccc2c(c1)CCC2)c1ccc(Br)s1

>  <assigned-label>
Y

$$$$
>  <molecule>
O=C(Nc1sc2c(c1C(=O)O)CCC2)c1ccccc1F

>  <assigned-label>
Y

$$$$
>  <molecule>
CCOC(=O)c1ccc(Nc2cc3ccccc3c(=O)[nH]2)cc1

>  <assigned-label>
Y

$$$$
>  <molecule>
O=C(Nc1ccc(-c2nnc(-c3ccccc3)o2)cc1)C1CCCO1 (stereo not given)

>  <assigned-label>
N

$$$$

stdin: Test call for this molecule, please: C1=C(CCNc2ncnc3c2cnn3-c2ccccc2)CCCC1
stdout: N

stdin: Now the same for O=C(Nc1ccc(Cl)cn1)c1ccc2c(c1)OCCO2
stdout: Y

stdin: Now the same for Fc1ccccc1-c1cc2cc3c(cc2cn1)OCO3
stdout: Y

stdin: Now the same for O=C(Nc1ccccc1Cl)Nc1cccc2cccnc12
stdout: N

stdin: Now the same for Cc1cc(NC(=O)Nc2ccccc2[N+](=O)[O-])no1
stdout: N

====

Measured inhibition accompanies every entry in the list below.
- System: Rat fibroblasts (CREF)
- procedure-summary: Peg3 promoter luciferase inhibitors, potency, dose response, cell-based, HeLa, CREF/GAPDH counter-screen panel (AID 624167)
- applied-conditions: CREF/GAPDH counter-screens; run 2, dose range 1, at 100 µM (top of the series)
Give the number; % is assumed, so skip it.

stdin: Name the recorded inhibition for Cc1ccc(-c2nc(-c3ccccn3)no2)cc1 .
stdout: 99.7

stdin: Now the same for COc1ccccc1C(=O)Nc1nc2ccccc2[nH]1
stdout: 99.5

stdin: Now the same for COc1cccc(OC)c1C(=O)Nc1cc(C)nn1-c1nc2ccccc2[nH]1
stdout: 12.6

stdin: Now the same for CN1OC[C@@H]2CN(S(=O)(=O)c3cccc(C(F)(F)F)c3)[C@H](c3ccc(-c4cc5ccccc5o4)cc3)C[C@@H]21
stdout: 24.5

stdin: Now the same for Cc1ccc(C(=O)CN2C(=O)c3ccccc3S2(=O)=O)cc1
stdout: 87.5

stdin: Now the same for Cc1ccc(C(=O)O/N=C(\N)c2ccccn2)cc1
stdout: 101

stdin: Now the same for CC(C)(C)c1ccc(C(=O)O/N=C(\N)c2ccccn2)cc1
stdout: 99.9

stdin: Now the same for O=C(O)c1ccc(CN2C(=O)c3cccc4c([N+](=O)[O-])ccc(c34)C2=O)cc1
stdout: 98.6

====

- procedure-summary: caspase-8 TRAIL sensitization, hit retest, confirmation, cell-based, NB7+caspase-8, with/without TRAIL, luminescence panel (AID 651596)
- applied-conditions: NB7 neuroblastoma + caspase-8, without TRAIL, luminescence viability, without TRAIL, mean of runs, at 10 µM
measured-property: activity
The number alone won't do; follow it with the unit.

>  <compound>
O=C(Nc1ccc(-c2cn3ccsc3n2)cc1)C1CC1

>  <endpoint-result>
70.2%

$$$$

stdin: Name the recorded activity for Cc1ccc(/C(N)=N/OC(=O)c2ccc(F)cc2)cc1 .
stdout: 92.5%

stdin: Now the same for COc1ccc2c(c1OC)C(=O)OC2Nc1nc(-c2ccc(-c3ccccc3)cc2)cs1 (stereo unspecified)
stdout: 49.4%

stdin: Now the same for FC(F)(F)c1cc(Cl)c2nc(-c3ccccc3)cn2c1
stdout: 76.1%

stdin: Now the same for O=C(Cn1ncc(Cl)c(Cl)c1=O)c1ccc(Cl)cc1
stdout: 99.6%

====

- tested-target: Tumor necrosis factor receptor superfamily member 10B (Homo sapiens) (UniProt O14763)
- Sequence (O14763 whole entry, looked up): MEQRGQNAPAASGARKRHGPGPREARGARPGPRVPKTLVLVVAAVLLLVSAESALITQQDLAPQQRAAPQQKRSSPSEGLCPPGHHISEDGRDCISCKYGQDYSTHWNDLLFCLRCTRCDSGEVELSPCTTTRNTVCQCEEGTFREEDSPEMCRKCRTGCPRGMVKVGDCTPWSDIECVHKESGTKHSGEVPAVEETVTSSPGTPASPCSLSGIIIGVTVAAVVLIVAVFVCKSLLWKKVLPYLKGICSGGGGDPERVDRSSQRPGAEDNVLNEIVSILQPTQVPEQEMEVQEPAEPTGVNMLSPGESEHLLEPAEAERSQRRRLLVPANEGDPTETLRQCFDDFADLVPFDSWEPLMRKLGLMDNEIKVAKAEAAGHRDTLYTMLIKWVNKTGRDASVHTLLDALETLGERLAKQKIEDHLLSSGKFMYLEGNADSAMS
- procedure-summary: caspase-8 TRAIL sensitization, hit retest, confirmation, cell-based, NB7+caspase-8, with/without TRAIL, luminescence panel (AID 651596)
- applied-conditions: NB7 neuroblastoma + caspase-8, TRAIL sensitization, luminescence viability, with TRAIL, mean of runs, at 10 µM, stronger effect = higher value
Measured activity accompanies every entry in the list below.

Worked examples follow.
>  <line-notation>
Cn1cnc(Sc2ncnc3nc[nH]c23)c1[N+](=O)[O-]

>  <measured-property>
activity

>  <endpoint-result>
62.5%

$$$$
>  <line-notation>
Cc1ccc(-c2cc(C(=O)N/N=C/c3ccc([N+](=O)[O-])o3)c3ccccc3n2)o1

>  <measured-property>
activity

>  <endpoint-result>
83.8%

$$$$

Could you now look at the following compound, please?
stdin: Name the recorded activity for CCOc1ccc(OCC(=O)Nc2cccc(S(=O)(=O)NC3=NCCC3)c2)cc1 .
stdout: 68.9%

====

Measured inhibition accompanies every entry in the list below.
- tested-target: PEG-3 (UniProt Q6IN02)
- procedure-summary: Peg3 promoter luciferase inhibitors, potency, dose response, cell-based, HeLa, CREF/GAPDH counter-screen panel (AID 624167)
- applied-conditions: CREF/GAPDH counter-screens; HeLa PEG-Prom luciferase reporter, overnight, run 2, dose range 1, at 100 µM (top of the series) unless noted
Give the number; % is assumed, so skip it.

Worked examples follow.
>  <compound>
C[C@@H](NCCCn1cnc2c(OCc3ccccc3)ncnc21)c1cccc2ccccc12

>  <inhibition, %>
101

$$$$
>  <compound>
C/C(=N\NC(=O)c1n[nH]c2c1CCC2)c1cccs1

>  <inhibition, %>
99.7

$$$$
>  <compound>
Nc1c(C(=O)Nc2cccc(C(=O)O)c2)sc2nc3c(cc12)CCCC3

>  <inhibition, %>
77.5

$$$$
>  <compound>
CCN(CCO)c1ccc(N=Nc2cc(C)[nH]n2)cc1

>  <inhibition, %>
98.9

$$$$
>  <compound>
CC(=O)c1cccc(-c2ccnc3c2CC(C(=O)Nc2cccc(NS(C)(=O)=O)c2)O3)c1 (centres undefined)

>  <inhibition, %>
65

$$$$

stdin: Name the recorded inhibition for C=CCN=C1NN=C(c2cc(C)n(CC=C)c2C)CS1 .
stdout: 97.6

stdin: Now the same for CCOC(=O)c1ccc(NC(=O)C2CCCN(S(=O)(=O)c3ccc(F)cc3)C2)cc1 (centres undefined)
stdout: 100

stdin: Now the same for COc1cccc(/C=N/Nc2cc(C)nc(-c3ccccc3O)n2)c1O
stdout: 102

stdin: Now the same for CC(C)CC1C(=O)N(Cc2cn(Cc3ccco3)nn2)CCS(=O)(=O)N1Cc1ccc(-c2ccc(F)cc2)cc1 (centres undefined)
stdout: 30.4
